Origin of measurements: patent US20090202980A1

binders and their reported Kd
Molecular target: T1, recombinant tissue-type plasminogen activator (tPA) (human, UniProt P00750 36-562)
T1 construct: Commercial full-length recombinant tPA; also called Alteplase; Actilyse
T1 sequence (P00750 36-562 limits assumed): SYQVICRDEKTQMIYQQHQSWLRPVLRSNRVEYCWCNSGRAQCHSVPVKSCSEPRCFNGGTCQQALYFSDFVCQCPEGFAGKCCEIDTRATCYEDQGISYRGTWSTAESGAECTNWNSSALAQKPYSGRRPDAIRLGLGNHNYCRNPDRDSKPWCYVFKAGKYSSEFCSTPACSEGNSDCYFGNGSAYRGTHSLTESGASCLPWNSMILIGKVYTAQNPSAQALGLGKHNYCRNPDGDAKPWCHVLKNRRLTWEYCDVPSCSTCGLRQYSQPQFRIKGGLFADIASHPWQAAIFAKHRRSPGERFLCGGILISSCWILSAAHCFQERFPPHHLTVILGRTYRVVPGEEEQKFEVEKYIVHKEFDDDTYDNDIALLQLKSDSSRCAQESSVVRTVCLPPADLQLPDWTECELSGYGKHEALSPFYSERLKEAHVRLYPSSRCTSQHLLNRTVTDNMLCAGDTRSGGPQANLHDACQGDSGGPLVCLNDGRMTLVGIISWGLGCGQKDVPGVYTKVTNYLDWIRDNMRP
Assay: ELISA, 25 µg/ml peptide immobilized on Exiqon plates
propertyMeasured: Kd

{"binder": "KRLEVDIDIKIRS (also called fibrin fragment α147-159 FP13) [fibrin peptide 85 (FP13), human fibrin α-chain fragment α148-160]", "result": "5 nM"}
{"binder": "KCNTATCATQRLANFLVHSSNNFGAILSSTNVGSNTY [human islet amyloid polypeptide, full length (fl-hIAPP)]", "result": "2 nM"}
